- target_system: human Langerin (hLang) CRD wild type (Homo sapiens, UniProt Q9UJ71)
- Sequence (Q9UJ71 193-328): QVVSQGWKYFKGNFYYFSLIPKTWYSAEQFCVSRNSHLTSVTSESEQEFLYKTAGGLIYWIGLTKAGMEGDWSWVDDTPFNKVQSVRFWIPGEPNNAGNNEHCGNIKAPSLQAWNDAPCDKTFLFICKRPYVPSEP
pKd: −log10 of the molar value. Where a SMILES comes first, the peptide text is derived from it.

| compound | pKd |
| --- | --- |
| O=C(NCCc1cn2c(n1)SCC2)c1cnc2sccn2c1=O | 3.96 |
| C[C@H](N)C(=O)N[C@@H](Cc1c[nH]c2ccccc12)C(=O)N[C@@H](CO)C(=O)O [AWS] (H-Ala-Trp-Ser-OH) | 2.62 |
| C[C@H](NC(=O)[C@@H](N)CO)C(=O)N[C@@H](Cc1c[nH]c2ccccc12)C(=O)N[C@@H](CO)C(=O)O [SAWS] (H-SAWS-OH) | 3.09 |
| Cc1sc2ncc(C(=O)O)c(=O)n2c1C | 3.05 |
